- Test system: HL-60
- assay: NCI tumour cell line growth inhibition, 48 h
Calls of active or inactive are those of the source. No stated cut-off is given here; in the data, active = GI50 up to about 1.1 µM and inactive = higher. Where a SMILES comes first, the peptide text is derived from it. The star is where a group is joined. Boc = CC(C)(C)OC(=O)*
Form entry, call: pick from T = active, F = inactive

Inquiry: Dear all, I need the recorded test outcome for "O=C(CC(=O)C(=O)CC(=O)OCc1ccccc1)OCc1ccccc1" , thank you.
Reply text: F

Inquiry: Recorded test call requested for "NCCNCCNCc1c2ccccc2c(CNCCNCCN)c2ccccc12"
Reply text: F

Inquiry: Each compound tested received a call. Report the one for "CCOP(=O)(OCC)c1c(C(=O)OC)cc(=O)[nH]c1-c1ccc(C)cc1" .
Reply text: F

Inquiry: Any idea what this test logged for "COc1ccc(OC)c2c(=S)c3ccccc3[nH]c12" ?
Reply text: F

Inquiry: Identify the outcome logged in this assay for the compound shown: COC(=O)C(Cc1c[nH]c2ccccc12)NC(=O)C(Cc1c[nH]c2ccccc12)NC(=O)C(Cc1c[nH]c2ccccc12)NC(=O)C(Cc1c[nH]c2ccccc12)NC(=O)C(Cc1c[nH]c2ccccc12)NC(=O)C(Cc1c[nH]c2ccccc12)NC(=O)C(Cc1c[nH]c2ccccc12)NC(=O)OC(C)(C)C (stereo not drawn) (Boc-WWWWWWW-OMe; configuration not given here)
Reply text: F

Inquiry: I'd appreciate the recorded outcome for "Cc1c(C#N)c2nnn(-c3ccccc3)c(=O)n2c1-c1ccccc1" from this test.
Reply text: T

Inquiry: Short answer needed: outcome of this test for "O=C(/C(=C(/Br)I)c1ccccc1)c1ccccc1" ?
Reply text: F

Inquiry: # fetch the recorded call for "Cc1c2c(n3c(nc4ccccc43)c1C#N)N(c1ccc(F)cc1)CC2" here
Reply text: F

----------
- System: HCT-116
- assay: NCI tumour cell line growth inhibition, 48 h
Calls of active or inactive are those of the source. Cut-off read from the data, not from the text of the source: active = GI50 up to about 1.1 µM and inactive = higher.
Thanks in advance; please answer with one of these: active, inactive

Inquiry: Which result was noted for this compound in the test: "N=C(N)SCCc1cn2ccccc2n1"
Reply text: inactive

Inquiry: Kindly provide the recorded test outcome for the following compound: "COc1cccc(NC(=O)/C(CS(=O)(=O)CCC(C(C)=O)C(C)=O)=N/NC(C)(C)C)c1"
Reply text: inactive

Inquiry: So what was the verdict on CCC(C=O)P1(=O)OC(C)(C)CN1C(C)(C)C (stereo not drawn) in this test?
Reply text: inactive

Inquiry: Fill in: this test's call for O=C([O-])C(O)C(O)C(O)C(O)C(=O)O.[K+] (stereo not drawn) is ___
Reply text: inactive

Inquiry: Recorded call for "CCCc1cc(COC)c(C#N)c(O)n1" ?
Reply text: inactive

Inquiry: Returns: the outcome recorded for COc1ccc(CC2NC(=O)/C=C/CC(C(C)C3OC3c3ccccc3)OC(=O)C(CC(C)C)OC(=O)C(C)CNC2=O)cc1Cl (stereo not drawn) in this assay.
Reply text: active

Inquiry: Dear colleague, could you share the recorded outcome for "CCOC(=O)/C=C1\Nc2ccccc2-n2nnnc21" when you have a moment?
Reply text: inactive

Inquiry: Query: recorded result category for "O=S(=O)(O)c1ccc([Se][Se]c2ccc(S(=O)(=O)O)cc2)cc1" in this test
Reply text: inactive

----------
- Test system: NCI-H522
- assay: NCI tumour cell line growth inhibition, 48 h
Activity calls are given as the source filed them. Rule as the data show it: active = GI50 up to about 1.1 µM and inactive = higher. Where a SMILES comes first, the peptide text is derived from it. The star is where a group is joined. Boc = CC(C)(C)OC(=O)*
Would you kindly list GI50 for each of these compounds?

Inquiry: Return the recorded GI50 value; entry: "Cc1ccc(NC(=O)/C(Cc2nc3ccc([N+](=O)[O-])cc3nc2O)=N\NC(=O)C[n+]2ccccc2)c(C)c1"
Reply text: 19.4 µM (inactive)

Inquiry: Give me measured GI50, please, for this compound: "CN(C)CC(C)(C)C(/C=C/c1ccccc1)=N\Nc1ccccc1"
Reply text: 6.14 µM (inactive)

Inquiry: Supply measured GI50 of "CCc1nc(N)nc(N)c1-c1ccc2nnn(O)c2c1" in your reply.
Reply text: > 100 µM (inactive)

Inquiry: Tell me its GI50 given "Cc1cc(C)nc(NS(=O)(=O)c2ccc(NC(=O)c3cccc4c(Nc5ccc(S(=O)(=O)Nc6nc(C)cc(C)n6)cc5)c5ccccc5nc34)cc2)n1" as the entry.
Reply text: 13.2 µM (inactive)

Inquiry: Dear colleague, please send me the reported GI50 for COC(=O)C(Cc1c[nH]c2ccccc12)NC(=O)C(Cc1c[nH]c2ccccc12)NC(=O)C(Cc1c[nH]c2ccccc12)NC(=O)C(Cc1c[nH]c2ccccc12)NC(=O)C(Cc1c[nH]c2ccccc12)NC(=O)C(Cc1c[nH]c2ccccc12)NC(=O)C(Cc1c[nH]c2ccccc12)NC(=O)OC(C)(C)C (stereo unspecified) (Boc-WWWWWWW-OMe; configuration not given here) when you can.
Reply text: 54.6 µM (inactive)

Inquiry: Name the recorded GI50 of the compound listed here: COc1ccc2c3c1O[C@H]1C(=O)C=CC4(n5[nH]c(=O)n(-c6ccccc6)c5=O)C(C2)N(C)CCC314 (stereo partly specified)
Reply text: > 100 µM (inactive)

----------
- System: CAKI-1
- assay: NCI tumour cell line growth inhibition, 48 h
Calls of active or inactive are those of the source. Rule as the data show it: active = GI50 up to about 1.1 µM and inactive = higher.
Answer with one of the outcomes given here: t for active, f for inactive

Inquiry: Call for entry "COc1cccc(NC(=O)/C(CS(=O)(=O)CCC(C(C)=O)C(C)=O)=N/NC(C)(C)C)c1" :
Reply text: f

Inquiry: Please let me know the test result on file for "Cc1ccc(NC(=O)CCc2nnc(S)[nH]2)cc1" .
Reply text: f

Inquiry: So what was the verdict on "Cc1csc2nc3c(cnn3C)c(=S)n12" in this test?
Reply text: f

Inquiry: Which outcome was assigned to COc1cc(C2c3cc4c(cc3OC(C)(N3CCCC3)C2C)OCO4)cc(OC)c1OC (stereo not given) in this test?
Reply text: t

Inquiry: Test call for this molecule, please: Nc1cn(C2OC(CC(c3ccccc3)(c3ccccc3)c3ccccc3)C(O)C2O)c(=O)[nH]c1=O (stereo not given)
Reply text: f

Inquiry: State the result this test recorded for "Cc1cccc(NC(=S)Nc2ccc(Cl)cc2)n1" .
Reply text: f

Inquiry: Answer briefly: the call reported for "CCOC(=O)C1=C(C(=O)c2ccc(C)cc2)C(c2cccc([N+](=O)[O-])c2)C(C(=O)c2ccc(C)cc2)=C(C(=O)OCC)N1" in this assay.
Reply text: f

Inquiry: Just curious, what result did "O=C(CCc1cc(O)cc(O)c1)NCCc1cc(OCc2ccccc2)cc(OCc2ccccc2)c1" get here?
Reply text: f

Inquiry: What classification did N#CC1C(=O)N(c2ccccc2)NC12OC(=O)c1ccncc12 (stereo not given) end up with in this test?
Reply text: f

Inquiry: Could you kindly confirm the outcome this assay logged for "C/C(=N/c1[nH]c(=O)cc2c1C(=O)CC2)N(C)C" ?
Reply text: f

----------
- Test system: 786-0
- assay: NCI tumour cell line growth inhibition, 48 h
Activity calls are given as the source filed them. Cut-off read from the data, not from the text of the source: active = GI50 up to about 1.1 µM and inactive = higher.
Result category, one only: active, inactive

Inquiry: How was "COc1ccc2c(c1)/C(=C(\C(Cl)=C(\Cl)N1CCCCC1)[N+](=O)[O-])N2" classified in this test?
Reply text: inactive

Inquiry: Tell me the recorded outcome of this test for COc1ccc(/N=N/c2c(C)c(C#N)c(=S)n(C3OC(COC(C)=O)C(OC(C)=O)C(OC(C)=O)C3OC(C)=O)c2-c2ccccc2)cc1 (configuration not stated) .
Reply text: inactive

Inquiry: Query: recorded result category for N=C(N)c1ccc(C(NC(=O)CNS(=O)(=O)c2ccc3ccccc3c2)P(=O)(Oc2ccccc2)Oc2ccccc2)cc1 (configuration not stated) in this test
Reply text: inactive

Inquiry: Which outcome did this test record for the compound "Cc1nnc(N)nc1/C=C\c1ccc(N(C)C)cc1" ?
Reply text: inactive

Inquiry: Kindly provide the recorded test outcome for the following compound: CCC1([N+](=O)[O-])CC2C=CC1C2 (configuration not stated)
Reply text: inactive

Inquiry: Identify the outcome logged in this assay for the compound shown: "CCCCC/C(C=O)=C\c1ccccc1"
Reply text: inactive

Inquiry: Field: outcome | Entry: "CCOC(=O)c1c(Br)c(-c2ccc(OC)cc2)c(Br)n1C"
Reply text: inactive

Inquiry: Tell me the recorded outcome of this test for "CCOc1cc(/C=N/c2ccc(Oc3ccc(Cl)cc3)c(Cl)c2)ccc1O" .
Reply text: inactive

Inquiry: Tell me the assay call for "COc1ccc(CSc2ccccc2Cn2cccc2)cc1OC" please.
Reply text: inactive

Inquiry: What did this assay record as the result for CS/C(=N\C#N)NC1CC(n2cc(C)c(=O)[nH]c2=O)OC1CO (configuration not stated) ?
Reply text: inactive

Inquiry: What did this assay record as the result for CCOC(=O)N1CC2(C)C=CC1C(C(=O)OC)C2 (configuration not stated) ?
Reply text: inactive

Inquiry: Record lookup: outcome of this test for Cc1coc2c1C(OC(=O)C(C)C)C1(C)C(C)CCC(O)C1C2=O (configuration not stated) ?
Reply text: inactive

Inquiry: // return assay outcome for N#CC(c1ccccc1)N(CCc1ccccc1)C(=O)c1ccccc1 (configuration not stated)
Reply text: inactive

Inquiry: Query: recorded result category for "O=C(O)c1oc2ccc([N+](=O)[O-])c3c2c1CCC3" in this test
Reply text: inactive

Inquiry: Lab log entry: "COC(=O)[C@H](COC(C)(C)C)NC(=O)N[C@H](C)c1ccccc1" — outcome as called in the assay?
Reply text: inactive

Inquiry: Would you mind telling me which call this test gave "Cc1cc(=O)oc2cc3oc(N(C)c4ccccc4)nc(=O)c3cc12" ?
Reply text: inactive

Inquiry: // return assay outcome for "O=S(=O)(O)c1ccc([Se][Se]c2ccc(S(=O)(=O)O)cc2)cc1"
Reply text: inactive

Inquiry: Hi, sorry to bother you, what did the test record for CSC1(C)CC2C(CC1N1CCCCC1)C2(C)C (configuration not stated) ?
Reply text: inactive

Inquiry: Recorded test outcome, item "CCCC(=O)c1ccc(=O)n(C)c1"
Reply text: inactive

Inquiry: Short answer needed: outcome of this test for Nc1ncnn2c(C3OC(CO)C(O)C3O)ccc12 (configuration not stated) ?
Reply text: active

Inquiry: Recorded test call requested for COc1ccc(C(C)NNC(=O)c2cc[n+]([BH2-]C#N)cc2)cc1F (configuration not stated)
Reply text: inactive

Inquiry: Hi team, can someone confirm the assay call for "Cc1cc(C)nc(NS(=O)(=O)c2ccc(NC(=O)c3cccc4c(Nc5ccc(S(=O)(=O)Nc6nc(C)cc(C)n6)cc5)c5ccccc5nc34)cc2)n1" ?
Reply text: inactive
